# Tested System: MAP kinase p38 (Homo sapiens, UniProt O15264+Q15759+Q16539+P53778)
# Assay Explanation: Inhibition of p38-related TNF-alpha release by whole blood cells at 10 e-4 to 10 e-8 M
# Type: functional
Binary call on IC50 with cut-off 7 µM: strictly below means Yes, and equality or higher means No.

The following molecules have reported results that may help.
>  <Molecule>
CCNc1cc(-c2c(-c3ccc(F)cc3)nc(SC)n2C2CC(C)(C)NC(C)(C)C2)ccn1

>  <Cat>
No

$$$$
>  <Molecule>
CSc1nc(-c2ccc(F)cc2)c(-c2ccnc(NC(C)=O)c2)n1C

>  <Cat>
No

$$$$
>  <Molecule>
CSc1nc(-c2ccc(F)cc2)c(-c2ccncc2)[nH]1

>  <Cat>
Yes

$$$$

Given the entry CSc1nc(-c2ccc(F)cc2)c(-c2ccnc(NC(C)c3ccccc3)c2)n1C (stereo not given) , would its reported IC50 be below 7 µM?
Yes

---

# Tested System: CYP2D6 (Homo sapiens, UniProt P10635)
# Sequence (P10635 whole entry): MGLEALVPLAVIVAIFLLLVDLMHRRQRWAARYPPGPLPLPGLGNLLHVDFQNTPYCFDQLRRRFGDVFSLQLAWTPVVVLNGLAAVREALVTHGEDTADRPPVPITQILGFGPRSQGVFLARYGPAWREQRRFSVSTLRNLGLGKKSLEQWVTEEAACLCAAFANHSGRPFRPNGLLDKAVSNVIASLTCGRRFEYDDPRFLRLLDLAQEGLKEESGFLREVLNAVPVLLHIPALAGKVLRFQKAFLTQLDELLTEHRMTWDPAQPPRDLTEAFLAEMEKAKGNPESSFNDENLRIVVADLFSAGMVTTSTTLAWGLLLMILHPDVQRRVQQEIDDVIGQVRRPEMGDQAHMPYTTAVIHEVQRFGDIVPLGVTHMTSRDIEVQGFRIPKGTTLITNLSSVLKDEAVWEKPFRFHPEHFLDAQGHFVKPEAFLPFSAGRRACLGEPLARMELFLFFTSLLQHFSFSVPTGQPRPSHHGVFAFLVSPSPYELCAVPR
# Assay Explanation: Inhibition of Cytochrome P450 2D6 at 10 uM
# Format: ADME
Outcome: yes for inhibition at 10 µM of at least 40%; no for anything lower.

Evaluate C[S+]([O-])c1ccc(CSc2nc(-c3ccc(F)cc3)c(-c3ccncc3)[nH]2)cc1 (stereo not given) : inhibition at 10 µM at minimum 40%?
yes

Test whether the compound CSc1nc(-c2ccc(F)cc2)c(-c2ccnc(NC(C)c3ccccc3)c2)[nH]1 (stereo not given) records inhibition at 10 µM of 40% or higher.
no

I'd appreciate it if you could say whether "CSc1nc(-c2ccc(F)cc2)c(-c2ccncc2)n1C1CC(C)(C)NC(C)(C)C1" has inhibition at 10 µM at least equal to 40%.
no

hey, is inhibition at 10 µM for this one >= 40%? C[S+]([O-])c1ccc(-c2nc(-c3ccncc3)c(-c3ccc(F)cc3)[nH]2)cc1 (stereo not given) [SB-203580]
yes

Could you please find out whether "CSc1nc(-c2ccc(F)cc2)c(-c2ccnc(NC(C)=O)c2)n1C1CC(C)(C)NC(C)(C)C1" has inhibition at 10 µM that meets 40% or exceeds it?
no

inhibition at 10 µM >= 40% for "CSc1nc(-c2ccc(F)cc2)c(-c2ccnc(Cl)c2)[nH]1" ?
no

---

Let's look at some compounds and their measured IC50.
# Tested System: MAP kinase p38 (Homo sapiens, UniProt O15264+Q15759+Q16539+P53778)
# Assay Explanation: Inhibitory activity against induction of IL-1-beta release in PBMCs
# Format: functional
Give the value in nM but do not write nM after it.

I would be grateful if you could share the reported IC50 for "CCCn1c(SC)nc(-c2ccc(F)cc2)c1-c1ccnc(NC(C)=O)c1" .
120

Which IC50 value belongs to "COc1ccc(CNc2cc(-c3[nH]c(SCc4ccccc4)nc3-c3ccc(F)cc3)ccn2)cc1" ?
180

If you can, please state the reported IC50 value of "CSc1nc(-c2ccc(F)cc2)c(-c2ccnc(Cl)c2)[nH]1" .
350

IC50 lookup needed for C[S+]([O-])c1ccc(CSc2nc(-c3ccc(F)cc3)c(-c3ccncc3)[nH]2)cc1 (stereo not given) , thanks.
380

Name the reported IC50 value associated with the compound "CSc1nc(-c2ccc(F)cc2)c(-c2ccncc2)n1C"
450
